molecular target: human DLL3 protein expressed on CHO-K1 recombinant cells (human DLL3 extracellular segment fused to EpCAM transmembrane and intracellular regions) (human) (UniProt Q9NYJ7); experiment: FACS, CHO-K1 hDLL3 cells, 0.8 nM antibody
Sequence (Q9NYJ7 other isoform, or with tags, fused parts or gaps limits assumed): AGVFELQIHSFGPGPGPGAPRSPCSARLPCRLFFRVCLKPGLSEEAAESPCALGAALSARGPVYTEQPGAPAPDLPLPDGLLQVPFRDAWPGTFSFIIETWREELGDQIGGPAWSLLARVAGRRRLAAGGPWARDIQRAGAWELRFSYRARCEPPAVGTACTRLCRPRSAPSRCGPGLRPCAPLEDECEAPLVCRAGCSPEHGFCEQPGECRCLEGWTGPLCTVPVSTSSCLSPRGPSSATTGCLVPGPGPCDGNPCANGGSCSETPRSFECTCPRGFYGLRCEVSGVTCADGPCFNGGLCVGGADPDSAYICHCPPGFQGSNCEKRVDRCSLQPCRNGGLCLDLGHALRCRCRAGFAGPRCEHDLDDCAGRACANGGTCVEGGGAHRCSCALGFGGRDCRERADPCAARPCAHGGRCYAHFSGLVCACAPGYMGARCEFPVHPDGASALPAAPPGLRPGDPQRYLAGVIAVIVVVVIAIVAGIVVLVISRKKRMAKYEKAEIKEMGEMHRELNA
Can you tell me MFI for the items I'm about to list?
One number for each entry, in MFI.

Below: 9 binders and their reported MFI.
INSERT INTO assay_data (binder, measured_property, observed_value) VALUES
  ('Hab006VL4VH1-hFc (scFv, part only; not given: scFv linker and human IgG1 Fc, V domains shown, not shown: another chain or arm of the molecule; a dimerising Fc or GST; small tags and cut ends) VL: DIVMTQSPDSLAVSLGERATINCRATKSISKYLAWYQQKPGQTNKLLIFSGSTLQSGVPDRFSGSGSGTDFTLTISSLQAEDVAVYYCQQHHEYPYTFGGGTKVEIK VH: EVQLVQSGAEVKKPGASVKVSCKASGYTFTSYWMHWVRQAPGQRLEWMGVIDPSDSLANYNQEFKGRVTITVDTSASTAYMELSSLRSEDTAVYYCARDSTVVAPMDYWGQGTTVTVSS', 'MFI', 11300),
  ('Hab014VL3VH1-hFc (scFv, part only; not given: VL-VH linker and human IgG1 Fc, V domains shown, not shown: another chain or arm of the molecule; a dimerising Fc or GST; small tags and cut ends) VL: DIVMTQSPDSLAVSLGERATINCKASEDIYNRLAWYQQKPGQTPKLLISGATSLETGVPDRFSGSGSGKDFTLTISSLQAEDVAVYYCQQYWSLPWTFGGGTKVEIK VH: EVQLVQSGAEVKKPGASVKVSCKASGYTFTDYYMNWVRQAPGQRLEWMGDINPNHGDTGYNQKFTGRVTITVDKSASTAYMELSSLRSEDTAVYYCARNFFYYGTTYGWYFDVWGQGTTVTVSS', 'MFI', 7320),
  ('Hab009VL2aVH1-hFc (scFv, part only; not given: VL-VH linker and human IgG1 Fc, V domains shown, not shown: another chain or arm of the molecule; a dimerising Fc or GST; small tags and cut ends) VL: DIVMTQSPLSLPVTPGEPASISCRASQTISDYLHWYLQKPGQSPRLLIKYASQSISGVPDRFSGSGSGTDFTLKISRVEAEDVGVYYCQQGHSFPLTFGQGTKLEIK VH: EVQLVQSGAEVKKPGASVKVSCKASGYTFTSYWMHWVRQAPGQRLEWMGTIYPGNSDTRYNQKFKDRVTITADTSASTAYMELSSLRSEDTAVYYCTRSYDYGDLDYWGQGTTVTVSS', 'MFI', 12000),
  ('Hab015VL4VH6a-hFc (scFv, part only; not given: scFv linker and human IgG1 Fc, V domains shown, not shown: another chain or arm of the molecule; a dimerising Fc or GST; small tags and cut ends) VL: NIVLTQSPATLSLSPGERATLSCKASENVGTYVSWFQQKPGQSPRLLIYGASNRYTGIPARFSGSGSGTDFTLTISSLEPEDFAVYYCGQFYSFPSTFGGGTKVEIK VH: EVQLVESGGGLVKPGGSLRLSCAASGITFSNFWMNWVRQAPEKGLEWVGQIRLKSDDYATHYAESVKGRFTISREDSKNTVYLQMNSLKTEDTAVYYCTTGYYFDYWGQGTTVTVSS', 'MFI', 4370),
  ('Hab008L3H5-hFc (scFv, part only; not given: scFv linker and human IgG1 Fc, V domains shown, not shown: another chain or arm of the molecule; a dimerising Fc or GST; small tags and cut ends) VL: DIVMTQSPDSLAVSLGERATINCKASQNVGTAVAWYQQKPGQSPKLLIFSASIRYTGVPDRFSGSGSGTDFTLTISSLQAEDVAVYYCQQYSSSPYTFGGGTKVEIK VH: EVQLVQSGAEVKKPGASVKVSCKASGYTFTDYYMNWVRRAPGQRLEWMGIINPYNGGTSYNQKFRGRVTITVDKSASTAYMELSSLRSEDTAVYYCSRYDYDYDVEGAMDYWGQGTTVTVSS', 'MFI', 2370),
  ('Hab015VL5VH1a-hFc (scFv, part only; not given: scFv linker and human IgG1 Fc, V domains shown, not shown: another chain or arm of the molecule; a dimerising Fc or GST; small tags and cut ends) VL: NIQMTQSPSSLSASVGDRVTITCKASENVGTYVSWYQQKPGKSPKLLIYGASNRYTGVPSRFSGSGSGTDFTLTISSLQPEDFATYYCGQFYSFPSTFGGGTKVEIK VH: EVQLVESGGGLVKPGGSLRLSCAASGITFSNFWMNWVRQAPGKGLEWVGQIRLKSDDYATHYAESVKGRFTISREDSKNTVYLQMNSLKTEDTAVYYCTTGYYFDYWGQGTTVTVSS', 'MFI', 4310),
  ('Hab013VL2VH2a-hFc (scFv, part only; not given: scFv linker and human IgG1 Fc, V domains shown, not shown: another chain or arm of the molecule; a dimerising Fc or GST; small tags and cut ends) VL: EIVLTQSPATLSLSPGERATLSCRASKSVSTSGFSYMHWYQQKPGQPPRLLIYLASNLESGIPARFSGSGSGTDFTLTISSLEPEDFAVYYCQHSRELPFTFGQGTKLEIK VH: EVQLVQSGAEVKKPGSSVKVSCKASGYAFSNYWINWVRQAPGQGLEWMGQINPGDGDTIYNSKFKGRVTITADKSTSTAYMELSSLRSEDTAVYYCEREGRNYGDFAYWGQGTTVTVSS', 'MFI', 11200),
  ('BI3 (antibody, human IgG1, kappa, V domains shown) VH: QVQLVQSGAEVKKPGASVKVSCKASGYTFTSYYVHWVRQAPGQGLEWMVIINPGGGTTSYAQKFLGRVTMTRDTSTNTVYMELKSLRSEDTAVYYCARGEAVTGNYFYYGMDVWGQGTTVTVSS VL: DIQMTQSPSAMSASVGDRVTITCRASQGISNYLVWFQQKPGKAPKRLIYAVSSLYSGVPSRFSGSGSGTEFTLTISSLQPEDFATYYCLQHDSYPYTFGQGTKLEIKR', 'MFI', 7770),
  ('Hab006VL4VH2-hFc (scFv, part only; not given: scFv linker and human IgG1 Fc, V domains shown, not shown: another chain or arm of the molecule; a dimerising Fc or GST; small tags and cut ends) VL: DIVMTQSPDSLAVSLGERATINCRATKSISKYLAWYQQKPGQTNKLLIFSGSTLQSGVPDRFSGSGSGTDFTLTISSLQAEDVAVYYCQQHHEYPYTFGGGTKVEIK VH: EVQLVQSGAEVKKPGASVKVSCKASGYTFTSYWMHWVRQAPGQRLEWMGVIDPSDSLANYNQEFKGRVTLTVDTSASTAYMELSSLRSEDTAVYYCARDSTVVAPMDYWGQGTTVTVSS', 'MFI', 11900);

IN: What value of MFI has been reported for the following binder? Hab015VL4VH1b-hFc (scFv, part only; not given: VL-VH linker and human IgG1 Fc, V domains shown, not shown: another chain or arm of the molecule; a dimerising Fc or GST; small tags and cut ends) VL: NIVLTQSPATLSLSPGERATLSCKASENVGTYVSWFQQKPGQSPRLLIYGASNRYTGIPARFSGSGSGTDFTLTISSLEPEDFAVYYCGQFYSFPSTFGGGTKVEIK VH: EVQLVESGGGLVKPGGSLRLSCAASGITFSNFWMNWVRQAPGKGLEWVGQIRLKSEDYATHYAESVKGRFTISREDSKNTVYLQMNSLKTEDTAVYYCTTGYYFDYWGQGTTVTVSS
OUT: 4640
